List of AC50 tested on UniProt P10635.
Sequence (P10635 whole entry): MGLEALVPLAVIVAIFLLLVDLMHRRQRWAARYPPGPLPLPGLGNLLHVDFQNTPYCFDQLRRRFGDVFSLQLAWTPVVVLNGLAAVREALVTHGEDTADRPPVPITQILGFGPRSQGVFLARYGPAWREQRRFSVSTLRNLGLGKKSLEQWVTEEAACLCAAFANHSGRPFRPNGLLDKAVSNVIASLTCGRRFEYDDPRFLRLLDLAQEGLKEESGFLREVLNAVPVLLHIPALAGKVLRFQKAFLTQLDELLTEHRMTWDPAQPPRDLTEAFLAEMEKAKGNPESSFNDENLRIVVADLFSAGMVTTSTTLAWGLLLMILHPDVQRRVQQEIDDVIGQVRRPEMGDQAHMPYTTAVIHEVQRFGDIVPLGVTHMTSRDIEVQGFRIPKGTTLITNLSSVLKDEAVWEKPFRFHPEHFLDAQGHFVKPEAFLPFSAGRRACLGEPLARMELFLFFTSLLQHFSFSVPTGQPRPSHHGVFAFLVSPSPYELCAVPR

Example molecules with recorded AC50:
CC12CCC(C(=O)Nc3cccc4ccccc34)(C1Br)C2(C)C (stereo unspecified) = 20 µM (inconclusive)
O=C1c2ccccc2NC(c2ccc(F)cc2)N1Cc1ccco1 (stereo unspecified) = 0.398 µM (inconclusive)
c1ccc(Nc2ncnc3ccc(-c4ccoc4)cc23)cc1 = 20 µM (inconclusive)
O=C(Nc1cccc(F)c1)N1CC[C@@]2(CCCN(C(=O)Oc3ccccc3)C2)C1 = 20 µM (inconclusive)

Task: Specify AC50 for COc1ccc2[nH]cc(CCNc3ncncc3-c3c(C)noc3C)c2c1 and stop.
Result: 20 µM (inconclusive)

Task: Supply measured AC50 of CC(C)(C)c1o[nH]c(=O)c1C[C@H](N)C(=O)O in your reply.
Result: 1.58 µM (inconclusive)

Task: Report measured AC50; entry is COc1cccc(Cn2c(=O)c(C)nc3cnc(Nc4ccccc4)nc32)c1
Result: 1 µM (inconclusive)

Task: Give the reported value of AC50 for this record: CC(=O)Nc1ccc(S(=O)(=O)NC(CC(=O)NCCC2=CCCCC2)C(C)C)cc1 (stereo unspecified)
Result: 0.708 µM (inconclusive)

* * *

Catalogue of EC50 values
- Tested on: Streptococcus sp. 'group A'
- measurement-notes: growth inhibition of control SK(-) GAS strain, dose response, counter-screen for streptokinase expression inhibitor project, luminescence, kanamycin, BacTiterGlo, confirmation (AID 1900)
- Format: functional, organism-based
Active and inactive are the calls of the source.

Would you please look over these solved cases?
Cc1ccsc1C(=O)OCC(=O)c1cc2ccccc2o1 = > 150 µM (not active)
Cc1cccc(N2CCN(C(=O)c3ccc4nc(N5CCCCC5)sc4c3)CC2)c1C = 13.8 µM (active)

Task: Read off the recorded EC50 for Cc1cc(NC(=O)c2ccc3c(c2)OCCO3)ccc1NC(=O)c1cc2ccccc2o1
Result: 14 µM (active)

Task: Answer with reported EC50 of CCN1/C(=C/C=C/c2oc3ccc(-c4ccccc4)cc3[n+]2CC)Oc2ccc(-c3ccccc3)cc21
Result: 1.5 µM (active)

Task: Identify measured EC50 corresponding to CC(=O)Nc1ccc(S(=O)(=O)N2CCN=C2SCc2ccc(C)cc2)cc1
Result: > 150 µM (not active)

Task: Could you please provide reported EC50 for O=C(NNC(=O)c1cc(-c2ccc(Cl)cc2)nc2ccccc12)c1csc(N2CCOCC2)n1 ? Thanks!
Result: 20 µM (active)

Task: Quick one: give measured EC50 for CCn1c(O)c(/C=N/N=C/c2ccccc2)c2ccc(C3=NNC(=O)CC3)cc21
Result: 6.42 µM (active)

* * *

- system-under-test: RNA-binding protein pos-1 (Caenorhabditis elegans)
- Sequence (G5EF15 whole entry, the tested form may be a part): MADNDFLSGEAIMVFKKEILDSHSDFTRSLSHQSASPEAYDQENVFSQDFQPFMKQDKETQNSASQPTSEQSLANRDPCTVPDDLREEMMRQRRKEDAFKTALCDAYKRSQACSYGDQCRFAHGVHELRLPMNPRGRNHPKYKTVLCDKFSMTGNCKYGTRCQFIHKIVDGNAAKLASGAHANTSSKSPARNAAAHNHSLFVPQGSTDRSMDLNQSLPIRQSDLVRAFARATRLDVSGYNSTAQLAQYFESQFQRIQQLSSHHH
- measurement-notes: inhibitors of POS-1/mex-3 RNA binding, dose response, biochemical, fluorescence polarization (AID 1964);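 note: purified POS-1 fused to maltose binding protein made in E. coli; potency of compounds blocking POS-1 binding to fluorescent RNA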
Activity calls are given as the source filed them.
Recorded EC50 for the following molecules

For orientation, consider the following solved cases.
Cc1ccc(/N=C/c2nc(-c3ccc(C)cc3)oc2O)cc1 = 32.6 µM (active)
COc1ccc(-c2nc(C[S+]([O-])CC(=O)NCc3ccccn3)c(C)o2)cc1 (stereo not given) = 55.4 µM (active)
CCc1ccc(N2C(=O)NC(=O)/C(=C\c3cc(C)n(-c4cc(C(=O)O)cc(C(=O)O)c4)c3C)C2=O)cc1 = > 300 µM (not active)
CC(C)C1Nc2ccc(S(N)(=O)=O)cc2C2C=CCC21 (stereo not given) = 52.4 µM (active)
Cc1ccc(C[S+]([O-])Cc2ccc(C(=O)N3CCN(c4ccccc4)CC3)o2)cc1 (stereo not given) = > 300 µM (not active)
N#CC1=C(N)OC2=C(C(=O)CC(c3ccccc3)C2)C1c1ccc2c(c1)OCO2 (stereo not given) = > 300 µM (not active)
CN(C)/C=C/C(=O)c1cnc(-c2ccccc2Cl)s1 = > 300 µM (not active)
CN(C)S(=O)(=O)c1cccc(NC(=S)N/N=C/c2ccc(O)c(O)c2O)c1 = 15 µM (active)
COc1ccc(/C=C/c2ccc3c(Br)ccc(O)c3n2)cc1 = 117 µM (active)

Consider now this further molecule.
Task: # return recorded EC50 for entry O=C(O)C1Nc2c(C(F)(F)F)ccc(Cl)c2C2C=CCC12 (stereo not given)
Result: 110 µM (active)
